Test system: human liver cancer HepG2 cells
Test: Cell proliferation assay (CCK-8)
Assay type: cell-based
Details: HepG2, 72 h
Protocol: CCK-8 method: The CCK-8 method is a highly sensitive, non-radioactive colorimetric assay for the determination of the number of viable cells in cell proliferation or cytotoxicity assays. […] Cells in logarithmic growth phase were inoculated in 96-well plates with 5000 cells/well respectively, and after 24 h of incubation, samples were added (final concentrations as shown in the table), and biplicate wells were set up for each sample. […] The OD value at 450 nm was measured on an plate reader. […]
pIC50: −log10 of the molar value.
REPORTED_METRIC: pIC50

Provide pIC50 for all items below, preserving their order.
1. COc1cc(/C=C/C(=O)O[C@@H]2C[C@@H]3[C@H](/C=C/CCC[C@H](C)OC(=O)/C=C/[C@H]3OC(=O)/C=C/c3cc(OC)c(OC)c(OC)c3)C2)cc(OC)c1OC [Compound 11c]
2. C[C@H]1CCC/C=C/[C@@H]2C[C@H](OC(=O)/C=C/c3ccc(N(C)C)cc3)C[C@H]2[C@H](O)/C=C/C(=O)O1 [Compound 10a]
3. COc1cc(/C=C/C(=O)O[C@@H]2/C=C/C(=O)O[C@@H](C)CCC/C=C/[C@@H]3C[C@H](O)C[C@H]32)cc(OC)c1OC [Compound 11b]
4. C[C@H]1CCC/C=C/[C@@H]2C[C@H](OC(=O)/C=C/c3cccnc3)C[C@H]2[C@H](O)/C=C/C(=O)O1 [Compound 16a]
5. C[C@H]1CCC/C=C/[C@@H]2C[C@H](OC(=O)/C=C/c3ccncc3)C[C@H]2[C@H](OC(=O)/C=C/c2ccncc2)/C=C/C(=O)O1 [Compound 14c]
6. C[C@H]1CCC/C=C/[C@@H]2C[C@H](OC(=O)/C=C/c3ccccn3)C[C@H]2[C@H](O)/C=C/C(=O)O1 [Compound 15a]

1: 5.00 to 6.00; 2: 5.00 to 6.00; 3: 6.00 to 7.00; 4: > 7.00; 5: 6.00 to 7.00; 6: > 7.00

These measurements were taken from patent US20220064138A1.
